Please respond with reported IC50 for every item in the list.
EXPERIMENTAL SYSTEM: human IDO1 (Homo sapiens)
Sequence (P14902 whole entry): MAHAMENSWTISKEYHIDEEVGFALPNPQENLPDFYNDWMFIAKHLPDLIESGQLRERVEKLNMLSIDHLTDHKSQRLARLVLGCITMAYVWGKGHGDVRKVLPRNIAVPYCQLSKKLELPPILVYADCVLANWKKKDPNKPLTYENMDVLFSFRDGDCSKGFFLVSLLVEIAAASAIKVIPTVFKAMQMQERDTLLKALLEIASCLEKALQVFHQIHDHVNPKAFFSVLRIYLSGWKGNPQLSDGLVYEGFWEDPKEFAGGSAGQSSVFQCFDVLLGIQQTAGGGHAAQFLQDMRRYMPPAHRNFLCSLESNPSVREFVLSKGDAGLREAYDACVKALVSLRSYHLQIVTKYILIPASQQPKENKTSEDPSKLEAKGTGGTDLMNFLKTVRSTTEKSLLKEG
PROTOCOL DESCRIPTION: IDO inhibition assay in HEK293 cells stably expressing human IDO1 (kynurenine production, Ehrlich reagent, absorbance 490 nm)
STUDY CONDITIONS: 20 hours incubation with compound, 500 nM reference standard = 100% inhibition, read-out: IDO1 HEK Human IC50
Put down the number, then write its unit next to it.

Below, 6 compounds whose answers are already recorded.
| COMPOUND | IC50 |
| --- | --- |
| CC(C)CN(Cc1ccccc1)c1cc(NC(=O)Nc2ccc(OC(F)(F)F)cc2)cc(-c2ccccc2-c2nnn[nH]2)n1 | 566 nM |
| CCN(CCC(F)(F)F)c1nc(NC(=O)Cc2ccc(C)cc2)cc(-c2ccccc2-c2nnn[nH]2)n1 | 127 nM |
| CCCN(Cc1ccccc1)c1cc(NC(=O)N(C)c2ccc(C(F)(F)F)cc2)cc(-c2ccccc2-c2nnn[nH]2)n1 | 38.9 nM |
| CCC(CC(=O)O)c1cc(Nc2ccc3nc(C)sc3c2)cc(N(Cc2ccc(F)cc2)C(C)C)n1 (single isomer, unassigned) | 11.1 nM |
| CCCN(Cc1ccccc1)c1cc(NC(=O)Cc2cccc(OC(F)(F)F)c2)cc(-c2ccccc2-c2nn[nH]n2)n1 | 59.8 nM |
| CC(C)CN(Cc1ccccc1)c1cc(Nc2ccc3c(c2)OC(F)(F)O3)cc(-c2ccccc2-c2nnn[nH]2)n1 | 9.5 nM |

Now for the compound whose IC50 we want.
Dear colleague, I am looking for the recorded IC50 of the following compound: CCCN(Cc1ccccc1)c1cc(NC(=O)Nc2cc(C)ccn2)cc(-c2ccccc2-c2nnn[nH]2)n1 845 nM

Every entry's value here was drawn from patent US12059420B2.
